# Tested on: basolateral peptide transporters
# testProtocol: Basolateral [3H]Gly-Sar uptake
# Assay type: in vitro ADME, canine
# runParameters: dog, MDCKII-MDR1 cells on Transwell inserts (basolateral uptake), pH 7.4
Square brackets hold non-standard residues; d marks the D form. Peptide text beside a SMILES is read from it. Sar = CNCC(=O)O
endpointLabel: Km at 15 min (µM)

* CN(CC(=O)O)C(=O)CN [Gly-Sar, Glycylsarcosine] (H-Gly-[Sar]-OH) | 50.9

* * *

# testProtocol: AP–BL [14C]Mannitol permeability
# Type: in vitro ADME, canine
# runParameters: dog, MDCK, pH 7.4
endpointLabel: Papp A→B at 60 min, 0.125 µCi/mL

• OC[C@@H](O)[C@@H](O)[C@H](O)[C@H](O)CO [[^14C]Mannitol, Mannitol] = 42.1 ×10⁻⁶ cm/s

* * *

# testProtocol: Transporter-mediated transepithelial Gly-Sar transport
# Type: in vitro ADME, canine
# runParameters: dog, MDCK, AP–BL permeability, MDCKII-wt, AP chamber pH 4.0, BL pH 7.4
Square brackets hold non-standard residues; d marks the D form. Peptide text beside a SMILES is read from it. Sar = CNCC(=O)O
endpointLabel: Papp A→B at 60 min, 0.5 μCi/mL (×10⁻⁶ cm/s)

• CN(CC(=O)O)C(=O)CN [Gly-Sar, Glycylsarcosine] (H-Gly-[Sar]-OH) = 13.1

* * *

# System: basolateral peptide transporters
# testProtocol: Basolateral [3H]Gly-Sar uptake
# Format: in vitro ADME, canine
# runParameters: dog, MDCKII-BCRP cells on Transwell inserts (basolateral uptake), pH 7.4
Square brackets hold non-standard residues; d marks the D form. Peptide text beside a SMILES is read from it. Sar = CNCC(=O)O
endpointLabel: Km at 15 min (µM)

* CN(CC(=O)O)C(=O)CN [Gly-Sar, Glycylsarcosine] (H-Gly-[Sar]-OH) | 46.1

* * *

# testProtocol: Transporter-mediated transepithelial Gly-Sar transport
# Assay type: in vitro ADME, canine
# runParameters: dog, BL–AP permeability, MDCKII-BCRP, AP chamber pH 4.0, BL pH 7.4
Square brackets hold non-standard residues; d marks the D form. Peptide text beside a SMILES is read from it. Sar = CNCC(=O)O
endpointLabel: Papp B→A at 60 min, 0.5 μCi/mL (×10⁻⁶ cm/s)

* CN(CC(=O)O)C(=O)CN [Gly-Sar, Glycylsarcosine] (H-Gly-[Sar]-OH) | 10.9

* * *

# testProtocol: Transporter-mediated transepithelial Gly-Sar transport
# Assay type: in vitro ADME, canine
# runParameters: dog, BL–AP permeability, MDCKII-MRP2, AP chamber pH 4.0, BL pH 7.4
Square brackets hold non-standard residues; d marks the D form. Peptide text beside a SMILES is read from it. Sar = CNCC(=O)O
endpointLabel: Papp B→A at 60 min, 0.5 μCi/mL (×10⁻⁶ cm/s)

* CN(CC(=O)O)C(=O)CN [Gly-Sar, Glycylsarcosine] (H-Gly-[Sar]-OH) | 8.5

* * *

# testProtocol: Transporter-mediated transepithelial Gly-Sar transport
# Type: in vitro ADME, canine
# runParameters: dog, MDCK, AP–BL permeability, MDCKII-wt, AP chamber pH 6.0, BL pH 7.4
Square brackets hold non-standard residues; d marks the D form. Peptide text beside a SMILES is read from it. Sar = CNCC(=O)O
endpointLabel: Papp A→B at 60 min, 0.5 μCi/mL (nm/s)

* CN(CC(=O)O)C(=O)CN [Gly-Sar, Glycylsarcosine] (H-Gly-[Sar]-OH) | 222

* * *

# testProtocol: Transporter-mediated transepithelial Gly-Sar transport
# Format: in vitro ADME, canine
# runParameters: dog, MDCK-MDR1, AP–BL permeability, MDCKII-MDR1, AP chamber pH 4.0, BL pH 7.4
Square brackets hold non-standard residues; d marks the D form. Peptide text beside a SMILES is read from it. Sar = CNCC(=O)O
endpointLabel: Papp A→B at 60 min, 0.5 μCi/mL (×10⁻⁶ cm/s)

* CN(CC(=O)O)C(=O)CN [Gly-Sar, Glycylsarcosine] (H-Gly-[Sar]-OH) | 6

* * *

# testProtocol: Transporter-mediated transepithelial Gly-Sar transport
# Type: in vitro ADME, canine
# runParameters: dog, AP–BL permeability, MDCKII-BCRP, AP chamber pH 6.0, BL pH 7.4
Square brackets hold non-standard residues; d marks the D form. Peptide text beside a SMILES is read from it. Sar = CNCC(=O)O
endpointLabel: Papp A→B at 60 min, 0.5 μCi/mL (×10⁻⁶ cm/s)

* CN(CC(=O)O)C(=O)CN [Gly-Sar, Glycylsarcosine] (H-Gly-[Sar]-OH) | 10.7

* * *

# testProtocol: Transporter-mediated transepithelial Gly-Sar transport
# Format: in vitro ADME, canine
# runParameters: dog, AP–BL permeability, MDCKII-MRP2, AP chamber pH 4.0, BL pH 7.4
Square brackets hold non-standard residues; d marks the D form. Peptide text beside a SMILES is read from it. Sar = CNCC(=O)O
endpointLabel: Papp A→B at 60 min, 0.5 μCi/mL (×10⁻⁶ cm/s)

• CN(CC(=O)O)C(=O)CN [Gly-Sar, Glycylsarcosine] (H-Gly-[Sar]-OH) = 8.6

* * *

# testProtocol: Transporter-mediated transepithelial Gly-Sar transport
# Assay type: in vitro ADME, canine
# runParameters: dog, AP–BL permeability, MDCKII-MRP2, AP chamber pH 5.0, BL pH 7.4
Square brackets hold non-standard residues; d marks the D form. Peptide text beside a SMILES is read from it. Sar = CNCC(=O)O
endpointLabel: Papp A→B at 60 min, 0.5 μCi/mL (×10⁻⁶ cm/s)

- CN(CC(=O)O)C(=O)CN [Gly-Sar, Glycylsarcosine] (H-Gly-[Sar]-OH): 9.9

* * *

# testProtocol: Transporter-mediated transepithelial Gly-Sar transport
# Assay type: in vitro ADME, canine
# runParameters: dog, pH 7.4, BL–AP permeability, MDCKII-MRP2, AP chamber pH 7.4, BL pH 7.4
Square brackets hold non-standard residues; d marks the D form. Peptide text beside a SMILES is read from it. Sar = CNCC(=O)O
endpointLabel: Papp B→A at 60 min, 0.5 μCi/mL (×10⁻⁶ cm/s)

* CN(CC(=O)O)C(=O)CN [Gly-Sar, Glycylsarcosine] (H-Gly-[Sar]-OH) | 15.7

* * *

# testProtocol: Transporter-mediated transepithelial Gly-Sar transport
# Assay type: in vitro ADME, canine
# runParameters: dog, pH 7.4, AP–BL permeability, MDCKII-BCRP, AP chamber pH 7.4, BL pH 7.4
Square brackets hold non-standard residues; d marks the D form. Peptide text beside a SMILES is read from it. Sar = CNCC(=O)O
endpointLabel: Papp A→B at 60 min, 0.5 μCi/mL (×10⁻⁶ cm/s)

• CN(CC(=O)O)C(=O)CN [Gly-Sar, Glycylsarcosine] (H-Gly-[Sar]-OH) = 18.6

* * *

# testProtocol: Transporter-mediated transepithelial Gly-Sar transport
# Assay type: in vitro ADME, canine
# runParameters: dog, MDCK, BL–AP permeability, MDCKII-wt, AP chamber pH 4.0, BL pH 7.4
Square brackets hold non-standard residues; d marks the D form. Peptide text beside a SMILES is read from it. Sar = CNCC(=O)O
endpointLabel: Papp B→A at 60 min, 0.5 μCi/mL (×10⁻⁶ cm/s)

• CN(CC(=O)O)C(=O)CN [Gly-Sar, Glycylsarcosine] (H-Gly-[Sar]-OH) = 9.4

* * *

# Tested on: basolateral peptide transporters
# testProtocol: Basolateral [3H]Gly-Sar uptake
# Assay type: in vitro ADME, canine
# runParameters: dog, MDCKII-MRP2 cells on Transwell inserts (basolateral uptake), pH 7.4
Square brackets hold non-standard residues; d marks the D form. Peptide text beside a SMILES is read from it. Sar = CNCC(=O)O
endpointLabel: Km at 15 min (µM)

- CN(CC(=O)O)C(=O)CN [Gly-Sar, Glycylsarcosine] (H-Gly-[Sar]-OH): 64.6

* * *

# testProtocol: Transporter-mediated transepithelial Gly-Sar transport
# Format: in vitro ADME, canine
# runParameters: dog, MDCK-MDR1, BL–AP permeability, MDCKII-MDR1, AP chamber pH 5.0, BL pH 7.4
Square brackets hold non-standard residues; d marks the D form. Peptide text beside a SMILES is read from it. Sar = CNCC(=O)O
endpointLabel: Papp B→A at 60 min, 0.5 μCi/mL (×10⁻⁶ cm/s)

* CN(CC(=O)O)C(=O)CN [Gly-Sar, Glycylsarcosine] (H-Gly-[Sar]-OH) | 7.6

* * *

# testProtocol: Transporter-mediated transepithelial Gly-Sar transport
# Format: in vitro ADME, canine
# runParameters: dog, AP–BL permeability, MDCKII-BCRP, AP chamber pH 4.0, BL pH 7.4
Square brackets hold non-standard residues; d marks the D form. Peptide text beside a SMILES is read from it. Sar = CNCC(=O)O
endpointLabel: Papp A→B at 60 min, 0.5 μCi/mL (×10⁻⁶ cm/s)

* CN(CC(=O)O)C(=O)CN [Gly-Sar, Glycylsarcosine] (H-Gly-[Sar]-OH) | 7.1
